tested.target: human ether-à-go-go-related gene (hERG) potassium channel (human, UniProt Q12809);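 note: peak tail current of the secondary pulse compared with the same well before compound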
Sequence (Q12809 whole entry, looked up): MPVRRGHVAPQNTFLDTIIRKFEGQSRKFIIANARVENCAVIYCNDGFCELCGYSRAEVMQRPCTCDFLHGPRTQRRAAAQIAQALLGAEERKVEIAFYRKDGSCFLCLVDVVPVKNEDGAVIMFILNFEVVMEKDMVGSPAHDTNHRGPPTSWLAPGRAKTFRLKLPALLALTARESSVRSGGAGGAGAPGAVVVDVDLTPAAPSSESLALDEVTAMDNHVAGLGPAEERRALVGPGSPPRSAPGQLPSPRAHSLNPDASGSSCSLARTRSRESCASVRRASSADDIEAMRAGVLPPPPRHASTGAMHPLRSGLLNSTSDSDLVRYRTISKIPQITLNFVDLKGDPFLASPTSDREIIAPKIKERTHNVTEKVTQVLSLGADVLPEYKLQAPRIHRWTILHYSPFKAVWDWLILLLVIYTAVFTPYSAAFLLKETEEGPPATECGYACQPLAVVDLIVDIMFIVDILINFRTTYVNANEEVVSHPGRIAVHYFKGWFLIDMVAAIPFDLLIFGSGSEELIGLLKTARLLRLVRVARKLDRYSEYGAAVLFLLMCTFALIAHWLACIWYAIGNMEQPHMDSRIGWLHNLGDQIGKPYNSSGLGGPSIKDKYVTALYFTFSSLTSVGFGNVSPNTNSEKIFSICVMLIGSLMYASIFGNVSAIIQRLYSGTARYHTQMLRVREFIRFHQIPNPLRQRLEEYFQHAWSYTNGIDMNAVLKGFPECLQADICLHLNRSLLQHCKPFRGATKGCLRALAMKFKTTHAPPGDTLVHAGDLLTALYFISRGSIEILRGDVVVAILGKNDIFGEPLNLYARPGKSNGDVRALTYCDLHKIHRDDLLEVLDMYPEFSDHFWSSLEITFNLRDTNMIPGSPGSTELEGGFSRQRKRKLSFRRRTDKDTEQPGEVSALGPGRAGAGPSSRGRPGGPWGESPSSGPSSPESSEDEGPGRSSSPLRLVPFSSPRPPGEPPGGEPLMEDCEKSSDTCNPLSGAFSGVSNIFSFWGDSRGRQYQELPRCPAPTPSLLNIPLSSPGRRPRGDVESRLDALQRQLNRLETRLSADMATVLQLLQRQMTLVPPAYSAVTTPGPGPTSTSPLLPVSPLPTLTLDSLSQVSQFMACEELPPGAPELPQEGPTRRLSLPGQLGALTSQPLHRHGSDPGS
assay.protocol: primary screen, population patch clamp on CHO cells stably expressing hERG; higher = less effect of the substance
Screen size: about 310,000 compounds; about 14,000 (4.5%) showed an effect of 50% or more. Effects have a minus sign here. The entries come from a sample that favours strong results as a whole.
experimental.endpoint: hERG current change (%, negative = inhibition) at 10uM (%)

| molecule | unit.string | data.value |
| --- | --- | --- |
| CC12CCC(=O)N1C(C(=O)Nc1nc(-c3ccccc3Cl)cs1)CS2 (stereo not shown) | % | -6.16 |
| COCCCNC(=O)CCc1nnc2ccc(N3CCC(C)CC3)nn12 | % | 10.9 |
| CCOC(=O)C1CCCN(C(=O)C2CCN(c3nnc(-n4cccc4)s3)CC2)C1 (stereo not shown) | % | -48.6 |
| Cc1cccc(N2CCN(C(=O)C3CCN(c4nnc(-n5cccc5)s4)CC3)CC2C)c1 (stereo not shown) | % | -55.8 |
| CC12CC3(C)CC(C)(C1)CC(C(=O)NC(=S)NC(C)(C)C)(C2)C3 | % | 13.3 |
| CCOc1ccccc1C1CC(=O)NC2=C1C(=O)CCC2 (stereo not shown) | % | 13.6 |
| Cc1cc([N+](=O)[O-])nn1CCCC(=O)NCc1ccccc1 | % | -5.8 |
| O=c1ccc2cc(S(=O)(=O)Nc3ccc(Br)cc3)ccc2o1 | % | 5.32 |
| Cc1ccn2c(NC(=O)c3cccs3)c(-c3ccccc3)nc2c1 | % | -0.701 |
| O=C(CN(CC1CCCO1)C(=O)CNS(=O)(=O)c1ccccc1)NCc1ccc(F)cc1 (stereo not shown) | % | 11.9 |

* * *

tested.target: human ether-à-go-go-related gene (hERG) potassium channel (human, UniProt Q12809);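 note: peak tail current of the secondary pulse compared with the same well before compound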
assay.protocol: primary screen, population patch clamp on CHO cells stably expressing hERG; higher = less effect of the substance
Hit rate of the full screen: of about 310,000 compounds, about 14,000 (4.5%) showed an effect of 50% or more. Effects have a minus sign here. This is one part of a sample in which strong results are shown more often than they occur.
experimental.endpoint: hERG current change (%, negative = inhibition) at 10uM (%)

| compound | data.value |
| --- | --- |
| CC(=O)n1cc([C@H]2C=C(C(N)=O)O[C@@H](OCc3ccc(CO)cc3)C2)c2ccccc21 | -16.8 |
| C=CCNC(=O)C1CCN(S(=O)(=O)c2ccccc2)CC1 | -2.98 |
| CC(=O)n1cc([C@@H]2C=C(C(=O)N3CCOCC3)O[C@H](OCCCCO)C2)c2ccccc21 | -51.6 |
| CCN(CC)S(=O)(=O)c1ccc(-c2nnc(SCC(N)=O)n2CC)cc1 | 35.8 |
| Cc1cnc(NC(=O)CSc2nnc(Cc3ccccc3)n2C)s1 | -12.1 |
| CCOc1ccccc1CN1CCN(Cc2cc3ccccc3[nH]2)CC1CCO (stereo not drawn) | -59.3 |
| CCCN(c1ccc(C)cc1)c1nc(=O)c2cccnc2s1 | -28 |
| COCCNc1oc(-c2cccs2)nc1S(=O)(=O)c1ccc(C)cc1 | -26.4 |
| CN(C)CCNc1oc(-c2ccccc2Cl)nc1S(=O)(=O)c1ccccc1 | -35.7 |
| CSc1ccc(S(=O)(=O)N2CCC(C(=O)Nc3ccccc3C(F)(F)F)CC2)cc1 | 7.69 |
| CN1C(C(=O)NCCc2cccs2)CC2Cn3c(nc4ccccc43)C21 (stereo not drawn) | -27.3 |
| NC(=S)Nc1cccc2cnccc12 | 1.4 |
| COCCNc1nnc(SC(C)C(=O)Nc2c(C)n(C)n(-c3ccccc3)c2=O)s1 (stereo not drawn) | 11.8 |
| COc1cccc2sc(=NC(=O)CS(=O)(=O)c3ccc(F)cc3)n(C)c12 | -0.213 |
| Cc1csc(NC(=O)CSc2nnc(-c3cccs3)n2C)n1 | -60.5 |
| Cc1csc(NC(=O)CSc2nnc(CCNC(=O)c3cccs3)n2C)n1 | 8.1 |
| Cc1cc(C)c(S(=O)(=O)N2CCN(c3ccccc3)CC2)c(C)c1 | 16.5 |
| Cc1cc2nc3n(c2cc1C)CC1CC(C(=O)NCCc2cccs2)N(C)C31 (stereo not drawn) | -38.5 |
| Cc1ccc(CN2CCN(Cc3cc(=O)c4ccccc4[nH]3)CC2CCO)o1 (stereo not drawn) | -30.8 |
| COCCCNc1oc(-c2cccs2)nc1S(=O)(=O)c1ccc(C)cc1 | -15.2 |
| Cc1cnc(NC(=O)CSc2nnc(-c3cccs3)n2C)s1 | -59.4 |
| O=C1CC(=Nc2ccccc2)NN1c1ccccc1 | 23.1 |
| C=CCNC(=O)c1ccccc1NC(=O)C1CCN(S(=O)(=O)c2ccc(SC)cc2)CC1 | -70 |
| CC1=C(C(=O)Nc2ccccc2)C(c2ccco2)C(C#N)=C(SCC(=O)Nc2cccc(C)c2C)N1 (stereo not drawn) | 17.9 |
| Cc1csc(NC(=O)CSc2nnc(-c3ccncc3)n2C)n1 | -17.5 |
| CN(C)CCCNc1oc(-c2ccccc2Cl)nc1S(=O)(=O)c1ccccc1 | -43.3 |
| Nc1ccccc1Nc1ccncc1[N+](=O)[O-] | 20 |
| COc1cccc(CN2CCN(Cc3[nH]c4ccccc4c3C)CC2CCO)c1 (stereo not drawn) | -60.5 |
| COc1cc(CN2CCN(Cc3c[nH]c4ccccc34)CC2CCO)cc(OC)c1 (stereo not drawn) | -32.3 |
| COc1ccc2[nH]c(CN3CCN(CC(C)C)C(CCO)C3)c(C)c2c1 (stereo not drawn) | 5.18 |
| COc1ccccc1S(=O)(=O)Cc1ccc(C(=O)NCc2ccc(C)cc2)o1 | -28.4 |
| COc1cccc2sc(=NC(=O)CCS(=O)(=O)c3ccc(C)cc3)n(C)c12 | 8.32 |
| COc1ccc(S(=O)(=O)Cc2ccc(C(=O)O)o2)cc1 | 21.8 |
| O=C(NCC(=O)N1CCN(C(=O)c2ccco2)CC1)c1cccc(Cl)c1 | -48.6 |
| CC(C)(C)CN1CCN(Cc2cc3ccccc3[nH]2)CC1CCO (stereo not drawn) | -8.03 |
| C=CCOC(=O)C1=C[C@@H](c2cn(C(C)=O)c3ccccc23)C[C@@H](OCc2ccc(CO)cc2)O1 | -93.5 |
| CC(=O)n1cc([C@H]2C=C(C(=O)N3CCN(Cc4ccccc4)CC3)O[C@@H](OCCCCO)C2)c2ccccc21 | -42.5 |
| COC(=O)CNC(=O)CNC(=O)c1nn(-c2ccc(OC)c(OC)c2)c(=O)c2ccccc12 | 18.1 |
| CS(=O)(=O)c1ccc(Cl)c(NC(=O)COC(=O)c2ccc(-n3cnnn3)cc2)c1 | -7.82 |

* * *

tested.target: human ether-à-go-go-related gene (hERG) potassium channel (human);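 note: peak tail current of the secondary pulse compared with the same well before compound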
assay.protocol: primary screen, population patch clamp on CHO cells stably expressing hERG; higher = less effect of the substance
Screen size: about 310,000 compounds; about 14,000 (4.5%) showed an effect of 50% or more. The effect is printed as a negative number. What follows is part of a selection rich in strong results, with near analogues and random picks from the rest.
// hERG current change (%, negative = inhibition) at 10uM lookup, one value per entry
experimental.endpoint: hERG current change (%, negative = inhibition) at 10uM (%)

| compound | data.value |
| --- | --- |
| CC1(OC(=O)C2CCCC2)C(=O)C=C2C=C(c3ccsc3)N(Cc3ccccc3)C=C2C1=O (stereo not shown) | -52.5 |
| COCCN1C=C2C(=O)C(C)(OC(=O)C3CCCC3)C(=O)C=C2C=C1c1ccsc1 (stereo not shown) | -6.22 |
| COc1ccc(CN2C=C3C(=O)C(C)(OC(=O)C4CCCC4)C(=O)C=C3C=C2c2ccsc2)cc1 (stereo not shown) | -64.4 |
| CC1(OC(=O)C2CCCC2)C(=O)C=C2C=C(c3ccsc3)N(Cc3ccc4c(c3)OCO4)C=C2C1=O (stereo not shown) | -79.6 |
| COc1cccc(NC(=S)N(CCCN2CCCC2)Cc2cccn2Cc2ccc(Cl)cc2)c1 | -41.2 |
| CC1(OC(=O)C2CCCC2)C(=O)C=C2C=C(c3ccsc3)N(Cc3ccco3)C=C2C1=O (stereo not shown) | -23.2 |
| COc1cccc(NC(=S)N(CCCN2CCCC2)Cc2ccco2)c1 | -46.3 |
| CC(C)CN1C=C2C(=O)C(C)(OC(=O)C3CCCC3)C(=O)C=C2C=C1c1ccsc1 (stereo not shown) | -0.438 |
| COc1cc(OC)c(C(=O)Nc2cccc(C(C)=O)c2)cc1OC | -9.08 |
| CCn1c(CN2CCN(C(=O)c3ccco3)CC2)nc2c1c(=O)n(C)c(=O)n2C | -16.4 |
| CC1(OC(=O)C2CCCC2)C(=O)C=C2C=C(c3ccsc3)N(CCCCO)C=C2C1=O (stereo not shown) | 1.16 |
| COc1cccc(NC(=S)N(CCCN2CCCC(C)C2)Cc2cccs2)c1 (stereo not shown) | -67.4 |
| COc1ccc(C2C3=C(CC(C)(C)CC3=O)N(CC(=O)O)C3=C2C(=O)CC(C)(C)C3)cc1OC | 2.83 |
| CC1(OC(=O)C2CCCC2)C(=O)C=C2C=C(c3ccsc3)N(C3CCCCC3)C=C2C1=O (stereo not shown) | -15.8 |
| CCOCC(=O)Nc1cc([N+](=O)[O-])ccc1OC | 15.7 |
| CC(C(=O)Nc1nccs1)N1C(=O)c2ccccc2S1(=O)=O (stereo not shown) | 11.5 |
| CC1(OC(=O)C2CCCC2)C(=O)C=C2C=C(c3ccsc3)N(C3CCCC3)C=C2C1=O (stereo not shown) | -64.7 |
| Cn1c(=O)c2c(nc(CN3CCN(C(=O)c4ccco4)CC3)n2CCc2ccccc2)n(C)c1=O | -66.3 |
| COc1ccc(NC(=S)N(CCCN2CCCC(C)C2)Cc2cccs2)cc1 (stereo not shown) | -68.9 |
